- Target: SARS-CoV-2 spike receptor-binding domain (2019-nCoV RBD-SD1, residues 319–566) (SARS-CoV-2, UniProt P0DTC2)

Binder	binding result
38 (VHH) VHH: QVQLVESGGGLVQAGGSLRLSCAASGFPVYWAHMTWYRQAPGKEREWVAAIVSSGAYTAYADSVKGRFTISRDNAKNTVYLQMNSLKPEDTAVYYCNVKDFGTQEHYYDYWGQGTQVTVS	binds
40 (VHH) VHH: QVQLVESGGGLVQAGGSLRLSCAASGFPVQGTWMEWYRQAPGKEREWVAAITSVGYRTYYADSVKGRFTISRDNAKNTVYLQMNSLKPEDTAVYYCNVKDEGAIAKNYDYWGQGTQVTVS	binds
83 (VHH) VHH: QVQLVESGGGSVQAGGSLRLSCAASGGITHIVYLGWFRQAPGKEREGVAALMTRWGTTYYADSVKGRFTVSLDNAKNTVYLQMNSLKPEDTALYYCAAAKYGQNFPLSYHAYRYWGQGTQVTVS	binds
66 (VHH) VHH: QVQLVESGGGLVQAGGSLRLSCAASGFPEVNTWMEWYRQAPGKEREWVAAITSYGYRTYYADSVKGRFTISRDNAKNTVYLQMNSLKPEDTAVYYCNVKDEGSQSWAYDYWGQGTQVTVS	binds
Sybody 6 (VHH) VHH: QVQLVESGGGLVQAGGSLRLSCAASGFPVNHTRMYWYRQAPGKEREWVAAIQSHGQNTFYADSVKGRFTISRDNAKNTVYLQMNSLKPEDTAVYYCYVWVGNQYWGQGTQVTVS	binds
22 (VHH) VHH: QVQLVESGGGLVQAGGSLRLSCAASGFPVNHYEMEWYRQAPGREREWVAAIMDSTGYETAYADSVKGRFTISRDNAKNTVYLQMNSLKPEDTAVYYCYVYVGASYIGQGTQVTVS	binds
Sybody 2 (VHH) VHH: QVQLVESGGGLVQAGGSLRLSCAASGFPVSNEEMTWYRQAPGKEREWVAAIASNGNQTEYADSVKGRFTISRDNAKNTVYLQMNSLKPEDTAVYYCYVYVGASYIGQGTQVTVS	binds
Sybody 11 (VHH) VHH: QVQLVESGGGLVQAGGSLRLSCAASGFPVRTENMHWYRQAPGKEREWVAAIYSFGATMLYADSVKGRFTISRDNAKNTVYLQMNSLKPEDTAVYYCAVNVGEWYEGQGTQVTVS	binds
